Population Fragmented Nuclei (%) values by entry
System: U2OS
protocol_details: Multiplex assay against U2OS
Type: toxicity, cell-based
recorded_conditions: human, 48 h, 10 µM, compound concentration 10 uM, replicate 1
Give the number; % is assumed, so skip it.

Input line: Look up Population Fragmented Nuclei (%) with U2OS for this compound: CC(C)Oc1ccccc1C(=O)Nc1ccccc1C(=O)Nc1cccc(S(=O)(=O)C(F)(F)F)c1
Output line: 64

Input line: Notebook entry, U2OS assay: Population Fragmented Nuclei (%) of CC(C)(C)NC[C@H](O)COc1nsnc1N1CCOCC1 [TIMOLOL] = ?
Output line: 1

Input line: Can you look up Population Fragmented Nuclei (%) on U2OS for CC(C)c1noc(N2CCC(COc3ccc(-c4ccc(S(C)(=O)=O)cc4)nc3)CC2)n1 [GSK-1292263] ?
Output line: 14

Input line: For the record COc1ccc(-c2ccc3ncc4c(c3c2)n(-c2ccc(N3CCNCC3)c(C(F)(F)F)c2)c(=O)n4C)cn1.O=C(O)/C=C\C(=O)O [BGT-226] , what value of Population Fragmented Nuclei (%) is listed for U2OS?
Output line: 40

Input line: Query the reported Population Fragmented Nuclei (%) for U2OS; item: CC(C)NC(=O)N1CC[C@H](NC2=Nc3cc(F)ccc3N(CC(F)F)c3ccc(Cl)cc32)C1
Output line: 23
